These entries and their values trace back to patent US20250382261A1.

- Experimental Target: CYP2D6 (Homo sapiens)
- Sequence (P10635 whole entry): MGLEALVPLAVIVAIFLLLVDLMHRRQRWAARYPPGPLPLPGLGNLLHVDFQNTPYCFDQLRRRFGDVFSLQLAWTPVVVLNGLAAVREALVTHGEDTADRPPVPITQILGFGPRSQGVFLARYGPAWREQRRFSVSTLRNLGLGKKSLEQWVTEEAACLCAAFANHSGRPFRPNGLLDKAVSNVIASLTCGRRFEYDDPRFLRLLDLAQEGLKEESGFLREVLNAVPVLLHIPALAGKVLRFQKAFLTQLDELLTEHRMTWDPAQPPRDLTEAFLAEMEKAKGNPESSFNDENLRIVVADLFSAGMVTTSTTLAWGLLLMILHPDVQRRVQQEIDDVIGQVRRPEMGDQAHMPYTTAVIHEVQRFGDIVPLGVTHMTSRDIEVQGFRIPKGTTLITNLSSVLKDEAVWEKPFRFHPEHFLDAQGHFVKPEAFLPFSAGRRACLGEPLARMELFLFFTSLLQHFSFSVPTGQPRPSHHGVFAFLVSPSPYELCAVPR
Measured Property: IC50 (µM)
The reply should contain only the number, in µM.

Q. API: value(readout=IC50, system=CYP2D6 (Homo sapiens)) for record N=C(N)c1ccc(OCCN(CCOc2ccc(C(=N)N)cc2)c2ccccc2)cc1
A. 14.8

###

- Protocol Notes: in vivo
- Condition Summary: female, C57BL/6, mouse, in vivo, iv, 1 mg/kg
Measured Property: Vd (L/kg)
The reply should contain only the number, in L/kg.

Q. // Vd lookup, key: N=C(N)c1ccc(OCCN(CCOc2ccc(C(=N)N)cc2)c2ccccc2)cc1
A. 33.4

###

- Protocol Notes: in vivo
- Condition Summary: female, C57BL/6, mouse, plasma, iv, 1 mg/kg
Measured Property: C0
I'd appreciate it if you wrote the number followed by its unit.

Q. // C0 lookup, key: N=C(N)c1ccc(OCCCCCOc2ccc(C(=N)N)cc2)cc1 [Pentamidine, pentamidine, reference compound]
A. 1260 ng/mL

###

- Protocol Notes: HEK293 cytotoxicity assay (Cell Titer Glo)
- Format: cell-based
- Condition Summary: human, HEK293T Cytotoxicity (IC50, μg/mL)
- Procedure: Cytotoxicity Assays. HEK293 (ATCC CRL 1573) cells were left to adhere for 18 h at 7.5×10^3 cells per well in DMEM containing 10% FBS and 2 mM L-glutamine. Compound was added directly into the well. After 48 h of treatment Promega Cell Titer Glo 2.0® was added, shaken for 10 min, and luminescence read (Biotek Neo). AC50 values were calculated using a four-parameter logistic curve in GraphPad Prism 9. […]
Collected IC50 at 48 h values appear next to each entry.
The reply should contain only the number, in µg/mL.

Guide cases for IC50 at 48 h, answers given:
>>> numeric_readout("N=C(N)c1ccc(OCCC2CCCCC2CCOc2ccc(C(=N)N)cc2)cc1 (centres unmarked)")
19.2
>>> numeric_readout("N=C(N)c1ccc(OCCN(CCOc2ccc(C(=N)N)cc2)c2ccccc2)cc1")
235
>>> numeric_readout("N/C(=N\\O)c1ccc(OCCCCCOc2ccc(/C(N)=N/O)nc2)cn1")
135
>>> numeric_readout("C[C@H](CCC[C@H](C)Oc1ccc(C(=N)N)cc1)Oc1ccc(C(=N)N)cc1 [Analog P15B]")
239
>>> numeric_readout("N=C(NC1CCCCC1)c1ccc(OCCCCCOc2ccc(C(=N)NC3CCCCC3)nc2)cn1")
22.2
>>> numeric_readout("CCC(CC)(CCOc1ccc(C(=N)N)cc1)CCOc1ccc(C(=N)N)cc1")
31.2
>>> numeric_readout("N=C(N)c1ccc(OCCC[C@H]2CCCN(c3ccc(C(=N)N)cc3)C2)cc1 [Analog P24B]")
57.9
>>> numeric_readout("C[C@H](CCCOc1ccc(C(=N)N)cc1)COc1ccc(C(=N)N)cc1 [Analog P22S]")
53.7
>>> numeric_readout("N=C(N)c1ccc(OCCN(CCOc2ccc(C(=N)N)cc2)Cc2ccccc2)cc1")
200
>>> numeric_readout("N=C(N)c1ccc(OCCC2(CCOc3ccc(C(=N)N)cn3)CCCC2)nc1")
53.7

Q. // IC50 at 48 h lookup, key: c1c[nH]c(-c2ccc(OCCCCCOc3ccc(-c4ncc[nH]4)cc3)cc2)n1
A. 104

###

Collected IC50 at 48 h values appear next to each entry.
- Protocol Notes: HEK293 cytotoxicity assay (Cell Titer Glo)
- Type: cell-based
- Condition Summary: human, HEK293T Cytotoxicity (IC50, μg/mL)
- Protocol: Cytotoxicity Assays. HEK293 (ATCC CRL 1573) cells were left to adhere for 18 h at 7.5×10^3 cells per well in DMEM containing 10% FBS and 2 mM L-glutamine. Compound was added directly into the well. After 48 h of treatment Promega Cell Titer Glo 2.0® was added, shaken for 10 min, and luminescence read (Biotek Neo). AC50 values were calculated using a four-parameter logistic curve in GraphPad Prism 9. […]

Guide cases for IC50 at 48 h, answers given:
>>> result("N=C(N)c1ccc(OCCC(CCOc2ccc(C(=N)N)cc2)N2CCCC2)cc1 (stereo not drawn) [Analog P38]")
"> 80 µg/mL"
>>> result("N=C(N)c1ccc(OCCN(CCOc2ccc(C(=N)N)cc2)CCC(F)(F)F)cc1 [Analog P34]")
"> 80 µg/mL"

In the following, a different compound is considered.
Q. // IC50 at 48 h lookup, key: N=C(N)c1ccc(OC2CCC(Oc3ccc(C(=N)N)cc3)CC2)cc1 (stereo not drawn) [Analog P08]
A. > 160 µg/mL
